# tested-target: full-length USP7 (Homo sapiens (Human), UniProt Q93009)
# Sequence (Q93009 whole entry): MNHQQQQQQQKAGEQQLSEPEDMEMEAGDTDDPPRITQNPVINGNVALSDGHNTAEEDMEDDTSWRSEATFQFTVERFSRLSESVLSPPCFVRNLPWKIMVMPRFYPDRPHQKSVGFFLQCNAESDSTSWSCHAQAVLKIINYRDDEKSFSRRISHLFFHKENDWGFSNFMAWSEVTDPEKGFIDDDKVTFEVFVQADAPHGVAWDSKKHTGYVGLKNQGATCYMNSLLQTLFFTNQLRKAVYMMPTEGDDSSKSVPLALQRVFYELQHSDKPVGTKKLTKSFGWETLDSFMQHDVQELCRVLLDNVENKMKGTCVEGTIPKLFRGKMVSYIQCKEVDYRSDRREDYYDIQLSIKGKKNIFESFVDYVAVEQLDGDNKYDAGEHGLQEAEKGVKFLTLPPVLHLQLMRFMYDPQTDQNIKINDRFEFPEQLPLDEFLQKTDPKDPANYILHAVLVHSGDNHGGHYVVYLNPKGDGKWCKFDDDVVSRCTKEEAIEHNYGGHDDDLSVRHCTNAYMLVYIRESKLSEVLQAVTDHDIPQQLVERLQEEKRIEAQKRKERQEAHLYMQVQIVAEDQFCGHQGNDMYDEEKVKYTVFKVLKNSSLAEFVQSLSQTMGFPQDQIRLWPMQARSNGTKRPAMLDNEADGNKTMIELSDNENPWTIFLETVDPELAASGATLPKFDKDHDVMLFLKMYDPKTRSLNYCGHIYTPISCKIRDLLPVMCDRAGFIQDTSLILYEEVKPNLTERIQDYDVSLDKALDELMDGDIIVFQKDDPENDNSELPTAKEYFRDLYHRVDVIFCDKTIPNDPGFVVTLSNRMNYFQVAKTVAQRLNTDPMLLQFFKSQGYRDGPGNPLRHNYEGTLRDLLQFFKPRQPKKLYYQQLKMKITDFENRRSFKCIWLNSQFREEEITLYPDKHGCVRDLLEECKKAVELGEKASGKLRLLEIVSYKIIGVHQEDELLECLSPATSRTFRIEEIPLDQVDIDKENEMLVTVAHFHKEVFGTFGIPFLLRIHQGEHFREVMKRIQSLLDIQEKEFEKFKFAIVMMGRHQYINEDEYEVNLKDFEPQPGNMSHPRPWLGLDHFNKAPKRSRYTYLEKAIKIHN
Structures can show the parent of a compound that is named as a salt.
Catalogue of IC50 readings, one per entry.
readout-kind: IC50

Cc1cc(C(F)(F)F)nc(-c2ccnc3cc(CN4C(=O)C5C(C4=O)C5(C)C)sc23)c1C(=O)N1CCOCC1 (stereo not drawn) [Example 84, hydrochloride] :: 500 to 1000 nM
Cc1cc(C(F)(F)F)nc(-c2ccnc3cc(CN4C(=O)C5C(C4=O)C5(C)C)sc23)c1CC1CNCCO1 (racemic) [Example 92, 2,2,2-trifluoroacetate] :: < 500 nM
Cc1cc(C(F)(F)F)nc(-c2ccnc3cc(CN4C(=O)C5C(C4=O)C5(C)C)sc23)c1C(=O)N1C[C@@H](N)[C@@H](F)C1 (stereo partly drawn) [Example 169, hydrochloride] :: < 500 nM
Cc1cc(Cl)cc(-c2ccnc3cc(CC4C(=O)NCC4O)sc23)c1O[C@H]1CCCNC1 (stereo partly drawn) [Example 179, 2,2,2-trifluoroacetate] :: < 500 nM
Cc1cc(Cl)cc(-c2ccnc3sccc23)c1O[C@H]1CCCNC1 [Example 31, 2,2,2-trifluoroacetate] :: 1000 to 10000 nM
Cc1c([N+](=O)[O-])cc(-c2ccnc3cc(CN4C(=O)C5C(C4=O)C5(C)C)sc23)n1C[C@@H]1CNCCO1 (stereo partly drawn) [Example 154, hydrochloride] :: < 500 nM
Cc1cc(Cl)nc(-c2ccnc3cc(CN4C(=O)C5C(C4=O)C5(C)C)sc23)c1NC1CNC1 (stereo not drawn) :: < 500 nM
Cc1cc(C(F)(F)F)nc(-c2ccnc3cc(CN4C(=O)C5C(C4=O)C5(C)C)sc23)c1C(=O)N1CC[C@H](C(F)F)C1 (stereo partly drawn) [Example 104, hydrochloride] :: < 500 nM
Cc1cc(C(F)(F)F)nc(-c2ccnc3cc(CN4C(=O)C5C(C4=O)C5(C)C)sc23)c1C(=O)N1C[C@H](N)[C@@H](F)C1 (stereo partly drawn) [Example 170, hydrochloride] :: < 500 nM
Cc1cc(Cl)cc(-c2ccnc3cc(CN4C(=O)C5C(C4=O)C5(C)C)sc23)c1NC1CCNC1 (stereo not drawn) [Example 175, hydrochloride] :: < 500 nM
Cc1nc(C(F)(F)F)cc(-c2ccnc3cc(CN4C(=O)C5C(C4=O)C5(C)C)sc23)c1NC(=O)C1CCNCC1 (stereo not drawn) [Example 87, hydrochloride] :: 1000 to 10000 nM
Cc1cc(C(F)(F)F)nc(-c2ccnc3cc(CN4C(=O)C5C(C4=O)C5(C)C)sc23)c1C(=O)N1CCNCC1 (stereo not drawn) [Example 76, dihydrochloride] :: < 500 nM

----------
# test-description: Immunomodulatory effect on isolated, anti-CD3/anti-CD28 activated CD4+ T cells from C57BL/6 mice
# Format: cell-based
# test-parameters: C57BL/6; activated mouse CD4+ T cells, 72 h; read-out: cytotoxicity IC50 (cell viability, CellTiter Glo Assay)
readout-kind: IC50 at 72 h

CN[C@H]1CCN(C(=O)c2c(C)cc(C(F)(F)F)nc2-c2ccnc3cc(CN4C(=O)C5C(C4=O)C5(C)C)sc23)C1.Cl.Cl (stereo partly shown) [Example 77, dihydrochloride] :: ~9 µM

----------
Heads up, these molecules all have IC50 values measured for UniProtKB Q93009.
Counter-ions that a name gives are not always drawn.
readout-kind: IC50

Cc1cc(C(F)(F)F)nc(-c2ccnc3cc(CN4C(=O)C5C(C4=O)C5(C)C)sc23)c1C(=O)N1CC[C@H](NC(C)C)C1 (stereo partly drawn) [Example 74, dihydrochloride] :: < 500 nM
Cc1nc(C#N)cc(-c2ccnc3cc(CN4C(=O)C5C(C4=O)C5(C)C)sc23)c1NC(=O)C1CNC1 (stereo not drawn) [Example 30, 2,2,2-trifluoroacetate] :: < 500 nM
Cc1nc(C#N)cc(-c2ccnc3cc(CN4C(=O)C5C(C4=O)C5(C)C)sc23)c1C(=O)N1CCNCC1 (stereo not drawn) [Example 17, hydrochloride] :: 500 to 1000 nM
Cc1cc(C(F)(F)F)nc(-c2ccnc3cc(CN4C(=O)C5C(C4=O)C5(C)C)sc23)c1C(=O)N1C[C@@H](N)[C@@H](C)C1 (stereo partly drawn) [Example 106, hydrochloride] :: < 500 nM
Cc1cc(Cl)nc(-c2ccnc3cc(CN4C(=O)C5C(C4=O)C5(C)C)sc23)c1OC1CCCNC1 (racemic) [Example 3, hydrochloride] :: < 500 nM
Cc1cc(C(F)(F)F)nc(-c2ccnc3cc(CN4C(=O)C5C(C4=O)C5(C)C)sc23)c1NC1CC2(CNC2)C1 (stereo not drawn) [Example 132, 2,2,2-trifluoroacetate] :: < 500 nM
